Target: Dopamine beta hydroxylase (Homo sapiens)
Construct: 125 μl of plasma; tissue Instituto Português do Sangue Transplantação; host or cells: human plasma from healthy donors
Sequence (P09172 40-617 limits assumed): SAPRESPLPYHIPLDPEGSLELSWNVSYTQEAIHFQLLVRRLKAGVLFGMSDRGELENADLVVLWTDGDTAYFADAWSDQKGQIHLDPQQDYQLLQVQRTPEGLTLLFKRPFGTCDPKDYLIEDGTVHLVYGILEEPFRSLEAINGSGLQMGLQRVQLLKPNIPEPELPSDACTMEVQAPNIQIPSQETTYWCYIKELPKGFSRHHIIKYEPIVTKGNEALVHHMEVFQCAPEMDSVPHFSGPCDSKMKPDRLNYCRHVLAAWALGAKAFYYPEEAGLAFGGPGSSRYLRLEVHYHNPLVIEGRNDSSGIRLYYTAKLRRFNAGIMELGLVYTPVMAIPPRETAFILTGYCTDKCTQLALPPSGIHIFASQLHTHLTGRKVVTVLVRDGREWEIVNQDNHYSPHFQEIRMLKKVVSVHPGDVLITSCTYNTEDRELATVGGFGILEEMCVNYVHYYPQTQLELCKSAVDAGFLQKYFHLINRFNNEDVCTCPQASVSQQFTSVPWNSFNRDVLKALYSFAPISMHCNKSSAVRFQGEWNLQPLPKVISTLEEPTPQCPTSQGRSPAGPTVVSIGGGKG
Assay: Dopamine beta hydroxylase activity in human plasma
Format: biochemical
Details: inhibitor 0.1 μM
The entries below come with measured Plasma (0.1 μM), activity in % of control values attached.
Experimental Readout: Plasma (0.1 μM), activity in % of control

• Cn1c(CC(=O)N2CCCO2)c2n(c1=S)C[C@H](c1c(F)ccc(Cl)c1F)C2 [Example 444] = 57.7 % of control
• CN(Cc1cccnc1)C(=O)Cc1[nH]c(=S)n2c1C[C@@H](c1c(F)ccc(Cl)c1F)C2 [Example 134] = 3.2 % of control
• CC(C)NC(=O)Cc1c2n(c(=S)n1C)C[C@@]1(c3cc(Br)ccc3F)C[C@@H]21 [Example 284] = 41.9 % of control
• O=C(CCc1[nH]c(=S)n2c1C[C@H](c1c(F)c(F)cc(F)c1F)C2)N1CCCC1 [Example 204] = 1.1 % of control
• O=C(Cc1[nH]c(=S)n2c1C[C@H](c1c(F)c(F)cc(F)c1F)C2)N[C@@H]1CCCOC1 [Example 386] = 79.4 % of control
• CN(C(=O)Cc1[nH]c(=S)n2c1C[C@H](c1c(F)c(F)cc(F)c1F)C2)C1CCOCC1 [Example 378] = 52.6 % of control
• Cn1c(CC(=O)N2CCNC(=O)C2)c2n(c1=S)C[C@@H](c1c(F)c(F)cc(F)c1F)C2 [Example 323] = 43.3 % of control
• CN(C(=O)Cc1[nH]c(=S)n2c1C[C@@H](c1c(F)ccc(Br)c1F)C2)C1CCOC1 (stereo partly drawn) [Example 167] = 3.2 % of control
• Cn1c(CC(=O)N2CCC[C@H]2CO)c2n(c1=S)C[C@H](c1c(F)ccc(Br)c1F)C2 [Example 241] = 8.9 % of control
• CN(C(=O)Cc1c2n(c(=S)n1C)C[C@H](c1c(F)ccc(Br)c1F)C2)[C@@H]1CCOC1 [Example 451] = 5.5 % of control
• O=C(Cc1[nH]c(=S)n2c1C[C@H](c1c(F)c(F)cc(F)c1F)C2)N1CCC(CO)CC1 [Example 83] = 78.8 % of control
• O=C(CCc1[nH]c(=S)n2c1C[C@H](c1c(F)c(F)cc(F)c1F)C2)N1CCC(F)(F)CC1 [Example 206] = 8.7 % of control

====

Target: Dopamine beta hydroxylase (Homo sapiens)
Construct: 125 μl of plasma; tissue Instituto Português do Sangue Transplantação; host or cells: human plasma from healthy donors
Sequence (P09172 40-617 limits assumed): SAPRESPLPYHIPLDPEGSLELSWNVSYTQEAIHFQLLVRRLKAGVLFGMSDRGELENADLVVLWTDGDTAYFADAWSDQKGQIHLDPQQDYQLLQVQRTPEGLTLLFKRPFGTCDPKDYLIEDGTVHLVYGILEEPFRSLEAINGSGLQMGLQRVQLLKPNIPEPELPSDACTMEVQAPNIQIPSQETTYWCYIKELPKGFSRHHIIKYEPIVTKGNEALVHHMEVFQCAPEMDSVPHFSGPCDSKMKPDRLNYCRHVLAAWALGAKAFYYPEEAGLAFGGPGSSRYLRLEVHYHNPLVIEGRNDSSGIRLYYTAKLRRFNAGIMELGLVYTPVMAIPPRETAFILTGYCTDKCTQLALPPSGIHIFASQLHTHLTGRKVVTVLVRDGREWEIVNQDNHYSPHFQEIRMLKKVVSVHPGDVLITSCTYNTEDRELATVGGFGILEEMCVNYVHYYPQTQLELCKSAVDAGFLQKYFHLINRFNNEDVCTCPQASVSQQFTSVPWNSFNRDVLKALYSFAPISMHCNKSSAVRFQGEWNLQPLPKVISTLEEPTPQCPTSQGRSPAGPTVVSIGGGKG
Test: Dopamine beta hydroxylase activity in human plasma
Format: biochemical
Details: inhibitor 1 μM
Experimental Readout: Plasma (1 μM), activity in % of control

• NC(=O)Cc1[nH]c(=S)n2c1[C@@H]1C[C@]1(c1c(F)ccc(Br)c1F)C2 = 0.1 % of control
• O=C(Cc1[nH]c(=S)n2c1C[C@@H](c1c(F)ccc(Br)c1F)C2)NCCO = 1.0 % of control
• O=C(O)Cc1[nH]c(=S)n2c1[C@@H]1C[C@]1(c1cc(F)cc(Cl)c1)C2 = 2.7 % of control
• CN1CCN(C(=O)Cc2[nH]c(=S)n3c2C[C@@H](c2c(F)ccc(Br)c2F)C3)CC1 = 0 % of control
• O=C(O)Cc1[nH]c(=S)n2c1C[C@@H](c1c(F)ccc(Br)c1F)C2 = 3.3 % of control
• O=C(O)Cc1[nH]c(=S)n2c1C[C@H](c1cc(F)ccc1F)C2 = 45.6 % of control
• CCOC(=O)Cc1[nH]c(=S)n2c1C[C@H](c1c(F)c(F)cc(F)c1F)C2 = 11.9 % of control
• O=C(Cc1[nH]c(=S)n2c1[C@@H]1C[C@]1(c1cc(Br)ccc1F)C2)N1CCCC1 = 2.9 % of control
• CN(C)C(=O)Cc1[nH]c(=S)n2c1[C@@H]1C[C@]1(c1cc(F)cc(Cl)c1)C2 = 24.1 % of control
• CN(C)CCCNC(=O)Cc1[nH]c(=S)n2c1C[C@H](c1c(F)c(F)cc(F)c1F)C2.Cl = 11.9 % of control
• O=C(O)Cc1[nH]c(=S)n2c1C[C@H](c1cc(Cl)ccc1F)C2 = 32.2 % of control
• NC(=O)Cc1[nH]c(=S)n2c1[C@@H]1C[C@]1(c1cc(Cl)ccc1F)C2 = 5.5 % of control
• CN1CCN(C(=O)Cc2[nH]c(=S)n3c2C[C@H](c2c(F)c(F)cc(F)c2F)C3)CC1 = 15.9 % of control
• N#CCNC(=O)Cc1[nH]c(=S)n2c1[C@@H]1C[C@]1(c1cc(Br)ccc1F)C2 = 0.1 % of control
• O=C(Cc1[nH]c(=S)n2c1C[C@H](c1c(F)c(F)cc(F)c1F)C2)NC1CC1 = 24.4 % of control
• CCOC(=O)Cc1[nH]c(=S)n2c1C[C@H](c1c(F)ccc(Br)c1F)C2 = 14.0 % of control
• CC(C)NC(=O)Cc1[nH]c(=S)n2c1[C@@H]1C[C@]1(c1cc(Cl)ccc1F)C2 = 13.2 % of control
• O=C(Cc1[nH]c(=S)n2c1C[C@@H](c1c(F)ccc(Br)c1F)C2)N1CCC[C@H]1CO = 2.1 % of control
• O=C(Cc1[nH]c(=S)n2c1[C@@H]1C[C@]1(c1cc(Br)ccc1F)C2)NCC1CC1 = 0.2 % of control
• O=C(Cc1[nH]c(=S)n2c1C[C@H](c1c(F)c(F)cc(F)c1F)C2)NC1CCC1 = 9.8 % of control
• Cl.O=C(Cc1[nH]c(=S)n2c1C[C@@H](c1c(F)ccc(Cl)c1F)C2)NCCc1ccccn1 = 4.1 % of control
• O=C(Cc1[nH]c(=S)n2c1C[C@H](c1c(F)c(F)cc(F)c1F)C2)NC1CCCC1 = 9.7 % of control
• CS(=O)(=O)NC(=O)Cc1[nH]c(=S)n2c1C[C@H](c1cc(F)ccc1F)C2 = 45.6 % of control
• O=C(Cc1[nH]c(=S)n2c1C[C@@H](c1c(F)ccc(Br)c1F)C2)NC1CC1 = 0.8 % of control
• O=C(O)Cc1[nH]c(=S)n2c1C[C@H](c1c(F)cccc1F)C2 = 19.8 % of control
• OCCc1[nH]c(=S)n2c1C[C@H](c1c(F)c(F)cc(F)c1F)C2 = 8.1 % of control
